Tested on: PC-12
ASSAY NAME: Tested for the intracellular Ca+2 release in PC12 cells; + = Release
Assay type: functional, cell-based
EXPERIMENTAL SETUP: Rattus norvegicus
Active and inactive are the calls of the source. No cut-off for these calls is given here.
QUANTITY MEASURED: Activity

{"columns": ["COMPOUND", "QUANTITY MEASURED", "READOUT VALUE"],
 "data": [
  ["CC(C)COc1ccc(CC2SC(=O)NC2=O)cc1 (stereo not drawn)", "Activity", "Release"],
  ["CC1(COc2ccc(CC3SC(=O)NC3=O)cc2)CCCCC1 (stereo not drawn) [CIGLITAZONE]", "Activity", "Active"],
  ["CCC(C)(C)Oc1ccc(/C=C2\\SC(=O)NC2=O)cc1", "Activity", "Phosphorylation"],
  ["Cc1c(C)c2c(c(C)c1O)CCC(C)(COc1ccc(/C=C3/SC(=O)NC3=O)cc1)O2 (stereo not drawn)", "Activity", "Phosphorylation"],
  ["O=C1NC(=O)C(Cc2ccc(OCC3CCC3)cc2)S1 (stereo not drawn)", "Activity", "Release"],
  ["Cc1c(C)c2c(c(C)c1O)CCC(C)(COc1ccc(CC3SC(=O)NC3=O)cc1)O2 (stereo not drawn) [TROGLITAZONE]", "Activity", "Active"],
  ["O=C1NC(=O)C(Cc2ccc(OCC3CCCCC3)cc2)S1 (stereo not drawn)", "Activity", "Release"],
  ["CCC(C)(C)Oc1ccc(CC2SC(=O)NC2=O)cc1 (stereo not drawn)", "Activity", "Phosphorylation"],
  ["O=C1N=C(O)S/C1=C\\c1ccc(OCC2CCCC2)cc1", "Activity", "Phosphorylation"],
  ["O=C1NC(=O)/C(=C/c2ccc(OCC3CCC3)cc2)S1", "Activity", "Phosphorylation"],
  ["O=C1N=C(O)S/C1=C\\c1ccc(OCC2CCCCC2)cc1", "Activity", "Phosphorylation"],
  ["O=C1NC(=O)C(Cc2ccc(OCC3CCCC3)cc2)S1 (stereo not drawn)", "Activity", "Phosphorylation"],
  ["O=C1N=C(O)S/C1=C\\c1ccc(OCC2CCCCO2)cc1 (stereo not drawn)", "Activity", "Phosphorylation"]
]}

* * *

ASSAY NAME: Partition coefficient (logP)
Assay type: physicochemical
EXPERIMENTAL SETUP: octanol/water; read-out: logP
Criterion: logP strictly under 2. Met: 1. Not met: 0.

{"columns": ["MOLECULE", "CLASS ASSIGNMENT"],
 "data": [
  ["O=C1NC(=O)C(Cc2ccc(OCC3CCC3)cc2)S1 (stereo unspecified)", 0],
  ["O=C1NC(=O)C(Cc2ccc(OCC3CCCCC3)cc2)S1 (stereo unspecified)", 0],
  ["O=C1NC(=O)C(Cc2ccc(OCC3CCCCO3)cc2)S1 (stereo unspecified)", 0],
  ["O=C1NC(=O)C(Cc2ccc(O)cc2)S1 (stereo unspecified)", 1],
  ["CCCOc1ccc(CC2SC(=O)NC2=O)cc1 (stereo unspecified)", 0],
  ["O=C1NC(=O)C(Cc2ccc(OCC3CC3)cc2)S1 (stereo unspecified)", 0],
  ["O=C1NC(=O)/C(=C/c2ccc(OCC3CCCC3)cc2)S1", 0],
  ["O=C1NC(=O)C(Cc2ccc(OCc3ccccc3)cc2)S1 (stereo unspecified)", 0],
  ["CCOc1ccc(CC2SC(=O)NC2=O)cc1 (stereo unspecified)", 0],
  ["Cc1c(C)c2c(c(C)c1O)CCC(C)(COc1ccc(/C=C3/SC(=O)NC3=O)cc1)O2 (stereo unspecified)", 0],
  ["O=C1N=C(O)S/C1=C\\c1ccc(OCC2CCCCC2)cc1", 0],
  ["CC(C)COc1ccc(/C=C2\\SC(=O)NC2=O)cc1", 0],
  ["COc1ccc(CC2SC(=O)NC2=O)cc1 (stereo unspecified)", 1],
  ["O=C1NC(=O)/C(=C/c2ccc(O)cc2)S1", 1]
]}

* * *

ASSAY NAME: Partition coefficient (logP)
Type: physicochemical
EXPERIMENTAL SETUP: octanol/water; read-out: logP
Entries and their logP values follow.
QUANTITY MEASURED: logP

{"columns": ["COMPOUND", "READOUT VALUE"],
 "data": [
  ["CCCOc1ccc(/C=C2\\SC(=O)NC2=O)cc1", 2.69],
  ["COc1ccc(/C=C2\\SC(=O)NC2=O)cc1", 1.63],
  ["O=C1NC(=O)/C(=C/c2ccc(OCc3ccccc3)cc2)S1", 3.4],
  ["O=C1NC(=O)/C(=C/c2ccc(OCC3CCC3)cc2)S1", 2.54],
  ["CCOc1ccc(/C=C2\\SC(=O)NC2=O)cc1", 2.16],
  ["O=C1N=C(O)S/C1=C\\c1ccc(OCC2CCCCO2)cc1 (configuration not stated)", 2.02],
  ["CCC(C)(C)Oc1ccc(/C=C2\\SC(=O)NC2=O)cc1", 3.49],
  ["CC(C)COc1ccc(CC2SC(=O)NC2=O)cc1 (configuration not stated)", 3.36],
  ["CCC(C)(C)Oc1ccc(CC2SC(=O)NC2=O)cc1 (configuration not stated)", 3.76],
  ["O=C1NC(=O)/C(=C/c2ccccc2)S1", 1.71],
  ["Cc1c(C)c2c(c(C)c1O)CCC(C)(COc1ccc(CC3SC(=O)NC3=O)cc1)O2 (configuration not stated)", 4.46],
  ["O=C1NC(=O)C(Cc2ccc(OCC3CCCC3)cc2)S1 (configuration not stated)", 3.38]
]}
